Assignment: determine reported kon for the given binders.
target.entity: T1, Human ANGPTL4(26-406)-FLAG-His6-Avi (human, UniProt Q9BY76 24-406, biotin on the C-terminal Avi tag (BirA) where the protein is immobilised)
T1 construct: the text calls it 20 amino acids), then QP, ANGPTL4 26-406 and FLAG-His6-Avi; the signal peptide is left out here; also called full length human ANGPTL4; hANGPTL4
T1 sequence: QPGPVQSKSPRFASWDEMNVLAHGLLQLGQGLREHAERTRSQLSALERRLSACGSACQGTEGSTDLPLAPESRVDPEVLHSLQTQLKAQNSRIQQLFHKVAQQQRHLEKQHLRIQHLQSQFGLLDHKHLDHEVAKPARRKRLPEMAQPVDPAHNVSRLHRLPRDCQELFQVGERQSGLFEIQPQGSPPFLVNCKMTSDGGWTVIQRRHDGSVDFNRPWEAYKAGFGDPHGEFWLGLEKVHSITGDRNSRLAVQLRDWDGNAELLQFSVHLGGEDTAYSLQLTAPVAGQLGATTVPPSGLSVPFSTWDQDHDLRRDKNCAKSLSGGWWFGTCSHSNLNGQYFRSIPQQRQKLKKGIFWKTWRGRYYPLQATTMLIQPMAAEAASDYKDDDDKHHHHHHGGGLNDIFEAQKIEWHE
measurement.protocol: Octet (ForteBio) kinetics, biotinylated antigen on streptavidin sensor, IgG in solution
Description: Dissociation constants (KD) were determined for selected antibodies of the invention by using an Octet (ForteBio) kinetic binding assay. […] The sensors were then transferred to a well containing 200 μl 1× Kinetics buffer, and antibody dissociation was monitored for 1200 seconds. […]
Respond numerically; units are M⁻¹ s⁻¹ and should not be typed.

Prompt line: Quick check: kon of NEG318 (antibody, human IgG1, kappa, V domains shown, humanized, hIgG1/kappa, parental antibody 14P18) VH: QVQLVQSGAEVKKPGASVKVSCKASGYTFTSFWITWVRQAPGQGLEWMGDIYPGGATTNYNEKLQGRVTLTVDTSTSTAYMELRSLRSDDTAVYYCARSPPQVGPFDYWGQGTLVTVSS VL: DIQMTQSPSSLSASVGDRVTITCQASDYIYHWLAWYQQKPGKAPKLLISGASSLETGVPSRFSGSGSGKDYTFTISSLQPEDIATYYCQQYWSIPWTFGQGTKLEIKR ?
Response line: 270000

Prompt line: Request: NEG310 (antibody, human IgG1, kappa, V domains shown, humanized, hIgG1/kappa, parental antibody 17B1) VH: QVQLVQSGAEVKKPGASVKVSCKASGYTFTSYTMHWVRQAPGQGLEWMGYINPSSGYTKYNQKFQGRVTMTADKSTSTAYMELSSLRSEDTAVYYCAEGWLLLAMDYWGQGTLVTVSS VL: EAVVTQSPATLSLSPGERATLSCRSSTGAVTTSNYAIWVQEKPGQAPRGLIGGTNNRAPGIPARFSGSLSGDDATLTISSLQPEDFAVYFCALWYSDHWVFGQGTKVEIKR
Response line: 220000

Prompt line: Request: NEG315 (antibody, human IgG1, kappa, V domains shown, humanized, hIgG1/kappa, parental antibody 37P1) VH: QVQLVQSGAEVKKPGASVKVSCKASGYTFTNYWITWVRQAPGQGLEWMGDFYPGGGNTNYNAKLQGRVTLTVDTSTSTAYMELRSLRSDDTAVYYCARSPPQVAPFDYWGQGTLVTVSS VL: DIQMTQSPSSLSASVGDRVTITCQASEYIYNWLGWYQQKPGKAPKLLISGASGLETGVPSRFSGSGSGKDYTFTISSLQPEDIATYYCQQYWSTPWTFGQGTKLEIKR
Response line: 280000
